Parameter melting point: see the listing below.
readout.kind: melting point

>  <molecule>
CC(C)c1ccc2c(c1)CCC1[C@](C)(C(=O)OCc3cn(Cc4ccccc4Br)nn3)CCC[C@]21C (stereo partly shown)

>  <value>
95.1 to 97.3 °C

$$$$
>  <molecule>
CC(C)c1ccc2c(c1)CCC1[C@](C)(C(=O)OCc3cn(Cc4ccc(Br)cc4)nn3)CCC[C@]21C (stereo partly shown)

>  <value>
172.5 to 174 °C

$$$$
>  <molecule>
CC(C)c1ccc2c(c1)CCC1[C@](C)(C(=O)OCc3cn(Cc4cccc(F)c4)nn3)CCC[C@]21C (stereo partly shown)

>  <value>
175.7 to 178.3 °C

$$$$
>  <molecule>
CC(C)c1ccc2c(c1)CCC1[C@](C)(C(=O)OCc3cn(Cc4cccc([N+](=O)[O-])c4)nn3)CCC[C@]21C (stereo partly shown)

>  <value>
128.5 to 132.3 °C

$$$$
>  <molecule>
CC(C)c1ccc2c(c1)CCC1[C@](C)(C(=O)OCc3cn(Cc4ccccc4F)nn3)CCC[C@]21C (stereo partly shown)

>  <value>
122.4 to 125.8 °C

$$$$
>  <molecule>
CC(C)c1ccc2c(c1)CCC1[C@](C)(C(=O)OCc3cn(Cc4ccc(F)cc4)nn3)CCC[C@]21C (stereo partly shown)

>  <value>
183 to 186.3 °C

$$$$
>  <molecule>
CC(C)c1ccc2c(c1)CCC1[C@](C)(C(=O)OCc3cn(Cc4ccc([N+](=O)[O-])cc4)nn3)CCC[C@]21C (stereo partly shown)

>  <value>
173.9 to 176.7 °C

$$$$
>  <molecule>
CC(C)c1ccc2c(c1)CCC1[C@](C)(C(=O)OCc3cn(Cc4cccc(Cl)c4)nn3)CCC[C@]21C (stereo partly shown)

>  <value>
153.2 to 155.5 °C

$$$$
>  <molecule>
CC(C)c1ccc2c(c1)CCC1[C@](C)(C(=O)OCc3cn(Cc4ccccc4Cl)nn3)CCC[C@]21C (stereo partly shown)

>  <value>
80.6 to 84.3 °C

$$$$
>  <molecule>
CC(C)c1ccc2c(c1)CCC1[C@](C)(C(=O)OCc3cn(Cc4cccc(Br)c4)nn3)CCC[C@]21C (stereo partly shown)

>  <value>
146.1 to 148 °C

$$$$
>  <molecule>
Cc1cccc(Cn2cc(COC(=O)[C@]3(C)CCC[C@]4(C)c5ccc(C(C)C)cc5CCC34)nn2)c1 (stereo partly shown)

>  <value>
130.7 to 132.8 °C

$$$$
>  <molecule>
CC(C)c1ccc2c(c1)CCC1[C@](C)(C(=O)OCc3cn(Cc4ccccc4)nn3)CCC[C@]21C (stereo partly shown)

>  <value>
181 to 183.4 °C

$$$$
>  <molecule>
CC(C)c1ccc2c(c1)CCC1[C@](C)(C(=O)OCc3cn(Cc4ccccc4[N+](=O)[O-])nn3)CCC[C@]21C (stereo partly shown)

>  <value>
119.7 to 122.2 °C

$$$$
>  <molecule>
COc1cccc(Cn2cc(COC(=O)[C@]3(C)CCC[C@]4(C)c5ccc(C(C)C)cc5CCC34)nn2)c1 (stereo partly shown)

>  <value>
106.5 to 108 °C

$$$$
>  <molecule>
CC(C)c1ccc2c(c1)CCC1[C@](C)(C(=O)OCc3cn(Cc4ccc(Cl)cc4)nn3)CCC[C@]21C (stereo partly shown)

>  <value>
176.9 to 179.2 °C

$$$$
>  <molecule>
Cc1ccc(Cn2cc(COC(=O)[C@]3(C)CCC[C@]4(C)c5ccc(C(C)C)cc5CCC34)nn2)cc1 (stereo partly shown)

>  <value>
160.4 to 162 °C

$$$$

----------
- System: human liver cancer cell (HepG2)
- assay.method.text: MTT antiproliferative assay, HepG2
- Format: cell-based
- run.parameters: Homo sapiens, HepG2, mean ± SD from three independent experiments
readout.kind: IC50

>  <molecule>
CC(C)c1ccc2c(c1)CCC1[C@](C)(C(=O)OCc3cn(Cc4ccc(Cl)cc4)nn3)CCC[C@]21C (stereo partly shown) [Compound 3g]

>  <value>
> 100 µM

$$$$
>  <molecule>
CC(C)c1ccc2c(c1)CCC1[C@](C)(C(=O)OCc3cn(Cc4ccccc4Cl)nn3)CCC[C@]21C (stereo partly shown) [Compound 3e]

>  <value>
45.1 µM

$$$$
>  <molecule>
CC(C)c1ccc2c(c1)CCC1[C@](C)(C(=O)OCc3cn(Cc4ccccc4[N+](=O)[O-])nn3)CCC[C@]21C (stereo partly shown) [Compound 3k]

>  <value>
6.25 µM

$$$$
>  <molecule>
CC(C)c1ccc2c(c1)CCC1[C@](C)(C(=O)OCc3cn(Cc4ccc([N+](=O)[O-])cc4)nn3)CCC[C@]21C (stereo partly shown) [Compound 3m]

>  <value>
> 100 µM

$$$$
>  <molecule>
CC(C)c1ccc2c(c1)CCC1[C@](C)(C(=O)OCc3cn(Cc4ccccc4F)nn3)CCC[C@]21C (stereo partly shown) [Compound 3b]

>  <value>
25.9 µM

$$$$
>  <molecule>
Cc1ccc(Cn2cc(COC(=O)[C@]3(C)CCC[C@]4(C)c5ccc(C(C)C)cc5CCC34)nn2)cc1 (stereo partly shown) [Compound 3o]

>  <value>
51.8 µM

$$$$
>  <molecule>
CC(C)c1ccc2c(c1)CCC1[C@](C)(C(=O)OCc3cn(Cc4ccccc4Br)nn3)CCC[C@]21C (stereo partly shown) [Compound 3h]

>  <value>
35.4 µM

$$$$

Data credit: paper PMC6891475
